Could you please report measured TGI for the items listed next?
Tested on: DU-145 prostate
ASSAY TEXT: NCI tumour cell line growth inhibition, 48 h
Provide only the numeric value, understood in µM.

Query string: Determine its reported TGI: Nc1ccc2c(c1)N(C(=O)c1cc3cc(NC(=O)c4cc5ccccc5o4)ccc3[nH]1)CC2CCl (stereo not given)
Result string: 2.08

Query string: Annotate the compound CC(C)c1ccc2c(c1)CC[C@@H]1[C@@](C)(C(=O)O)CCC[C@]21C with its measured TGI.
Result string: 19.6

----------
Record form. Attribute: TGI. Fill in for each entry.
System: COLO 205 colon
ASSAY TEXT: NCI tumour cell line growth inhibition, 48 h
Answer format: numeric, µM implied, no suffix.

Query string: Give the reported TGI for this molecule. Cc1ccc(NC(=O)C(=O)C(C(=O)c2ccc3ccccc3c2)C2OC(=O)c3ccccc32)cc1C (stereo unspecified)
Result string: 32.6

Query string: Determine its reported TGI: CCCCCCCCCCCCCC1=NC(C)(C)CN1C(C)C
Result string: 2.71

Query string: Provide measured TGI value, entry: CCOc1cc2c(OCc3ccccc3)cc3c4cc(OC)c(OC)cc4c[n+](C)c3c2cc1OC
Result string: 0.481

Query string: Read off the recorded TGI for CC(C)(C)[Si](C)(C)OCC1OC(n2ccc(N)nc2=O)C(O[Si](C)(C)C(C)(C)C)C1O[Si](C)(C)C(C)(C)C (stereo unspecified)
Result string: 9.84

Query string: Note TGI for the molecule shown: [Cl][Hg][c]1cc(Br)cc(Br)c1
Result string: 4.97

Query string: Provide one value: measured TGI of COc1cccc2c1OC(c1ccc(Cl)cc1)C([N+](=O)[O-])=C2 (stereo unspecified)
Result string: 5.74

Query string: Identify measured TGI corresponding to O=C(O)CC1NC(/C(=C/c2ccccc2)NC(=O)c2ccccc2)OC1=O (stereo unspecified)
Result string: 40.6

Query string: Quote TGI reported for CC1=CC(C)C/C=C/C2C3OC3(C)C(C)C3C(Cc4c[nH]c5ccccc45)NC(=O)C23C(=O)C=CC(=O)C1O (stereo unspecified) please.
Result string: 2

Query string: Determine from records and report TGI for COc1cc2cc3c4c(cc(OC)c(OC)c4c2cc1OC)CCN3C(=O)OCCN1CCNCC1
Result string: 20.9
